This collection of values is drawn from ChEMBL document CHEMBL1961873.

# Assay System: Tyrosine-protein kinase Srms (Homo sapiens) (UniProt Q9H3Y6)
# Sequence (Q9H3Y6 whole entry): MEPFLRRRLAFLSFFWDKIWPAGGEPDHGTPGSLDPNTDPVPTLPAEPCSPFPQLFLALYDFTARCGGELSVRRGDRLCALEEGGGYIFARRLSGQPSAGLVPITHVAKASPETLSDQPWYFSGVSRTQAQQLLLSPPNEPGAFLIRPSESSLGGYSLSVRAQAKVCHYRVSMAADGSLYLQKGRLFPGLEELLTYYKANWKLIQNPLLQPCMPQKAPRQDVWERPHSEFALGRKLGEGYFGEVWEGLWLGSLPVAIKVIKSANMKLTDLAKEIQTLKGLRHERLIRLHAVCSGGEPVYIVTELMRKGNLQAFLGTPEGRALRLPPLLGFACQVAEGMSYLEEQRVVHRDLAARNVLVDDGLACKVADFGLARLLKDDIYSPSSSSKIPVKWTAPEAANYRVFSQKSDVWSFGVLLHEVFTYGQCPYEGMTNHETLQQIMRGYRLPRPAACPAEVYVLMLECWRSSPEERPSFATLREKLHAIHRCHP
# Cond: at 1 µM
# Description: GSK_PKIS: SRMS mean inhibition at 1 uM [Nanosyn]
Measured Property: inhibition (%)
Give the number; % is assumed, so skip it.

Worked set:
compound=COc1cc(N2CCN(C(C)C)CC2)ccc1Nc1nc(Nc2ccc(F)cc2C(=O)NC[C@@H](O)CO)c2cc[nH]c2n1 observed=-0.49
compound=Cc1ccc(C(=O)NC(C)C)cc1-c1ccc(C(=O)NCC2CC2)cc1 observed=2.24
compound=CN1CCN(CCCNc2nc3ccc(Oc4ccc(NC(=O)Nc5cc(C(F)(F)F)ccc5F)cc4)cc3[nH]2)CC1 observed=0.43
compound=Fc1ccc(-c2ncn(CCCN3CCOCC3)c2-c2ccncc2)cc1 observed=-3.16

Now let's try a different one.
Exercise: Please look at this compound and report its inhibition: Clc1ccc(CNc2nccc(-c3cnn4ncccc34)n2)cc1
Solution: -1.1

====

# Assay System: Discoidin domain-containing receptor 2 (Homo sapiens) (UniProt Q16832);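 note: reported figure is the mean inhibition of DDR2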
# Sequence (whole entry): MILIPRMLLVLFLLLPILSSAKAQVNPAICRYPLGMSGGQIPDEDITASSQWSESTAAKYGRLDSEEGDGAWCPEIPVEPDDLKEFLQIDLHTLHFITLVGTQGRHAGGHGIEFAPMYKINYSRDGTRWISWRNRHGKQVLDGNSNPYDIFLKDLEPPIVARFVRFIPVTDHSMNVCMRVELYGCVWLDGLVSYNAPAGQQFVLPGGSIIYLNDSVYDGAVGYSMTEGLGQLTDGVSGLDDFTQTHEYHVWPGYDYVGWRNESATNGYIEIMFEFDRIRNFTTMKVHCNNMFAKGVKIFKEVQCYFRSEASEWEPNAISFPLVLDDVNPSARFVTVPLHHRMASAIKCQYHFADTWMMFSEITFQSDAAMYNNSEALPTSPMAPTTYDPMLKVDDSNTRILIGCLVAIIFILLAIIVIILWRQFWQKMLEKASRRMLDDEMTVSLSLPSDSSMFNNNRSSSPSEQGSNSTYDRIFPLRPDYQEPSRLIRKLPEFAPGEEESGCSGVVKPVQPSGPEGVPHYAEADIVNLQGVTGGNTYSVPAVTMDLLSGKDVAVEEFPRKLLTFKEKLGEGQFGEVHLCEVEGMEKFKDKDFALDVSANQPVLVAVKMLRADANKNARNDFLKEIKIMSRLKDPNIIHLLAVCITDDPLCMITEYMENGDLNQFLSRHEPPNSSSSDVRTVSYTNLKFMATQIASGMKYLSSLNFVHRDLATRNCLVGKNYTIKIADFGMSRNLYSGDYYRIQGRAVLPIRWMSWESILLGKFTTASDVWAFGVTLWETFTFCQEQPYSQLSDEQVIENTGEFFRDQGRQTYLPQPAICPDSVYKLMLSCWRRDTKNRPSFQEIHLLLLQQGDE
# Cond: at 1 µM
Returns criterion met if the recorded inhibition is greater than or equal to 10%, and criterion not met otherwise.

These recorded examples may help you get a feel for the data.
test_smiles=COc1cc2ncn(-c3cc(OCCc4ccccc4)c(C(N)=O)s3)c2cc1OC assigned_class="criterion not met"
test_smiles=COc1cc(Nc2ncc(-c3ccccc3)o2)cc(OC)c1OC assigned_class="criterion not met"
test_smiles=CN(C)CCCNc1nccc(-c2c(-c3ccc(F)cc3)nn3cc(C(F)(F)F)ccc23)n1 assigned_class="criterion met"
test_smiles=COc1cc(C)c(N(C)C(=O)CN(C)C)cc1Nc1nc(Nc2cccc(F)c2C(N)=O)c2cc[nH]c2n1 assigned_class="criterion not met"

Consider the additional molecule presented here.
Exercise: Decide: is the reported value of inhibition for O=C(Nc1ccc(Oc2ccc3[nH]c(NC(=O)c4ccccc4)nc3c2)cc1)Nc1cc(C(F)(F)F)ccc1F equal to or greater than 10%?
Solution: criterion met

====

# Assay System: Ribosomal protein S6 kinase alpha-2 (Homo sapiens) (UniProt Q15349);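 note: reported value is the mean percent inhibition of RSK3, from the GSK PKIS screening panel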
# Sequence (Q15349 whole entry): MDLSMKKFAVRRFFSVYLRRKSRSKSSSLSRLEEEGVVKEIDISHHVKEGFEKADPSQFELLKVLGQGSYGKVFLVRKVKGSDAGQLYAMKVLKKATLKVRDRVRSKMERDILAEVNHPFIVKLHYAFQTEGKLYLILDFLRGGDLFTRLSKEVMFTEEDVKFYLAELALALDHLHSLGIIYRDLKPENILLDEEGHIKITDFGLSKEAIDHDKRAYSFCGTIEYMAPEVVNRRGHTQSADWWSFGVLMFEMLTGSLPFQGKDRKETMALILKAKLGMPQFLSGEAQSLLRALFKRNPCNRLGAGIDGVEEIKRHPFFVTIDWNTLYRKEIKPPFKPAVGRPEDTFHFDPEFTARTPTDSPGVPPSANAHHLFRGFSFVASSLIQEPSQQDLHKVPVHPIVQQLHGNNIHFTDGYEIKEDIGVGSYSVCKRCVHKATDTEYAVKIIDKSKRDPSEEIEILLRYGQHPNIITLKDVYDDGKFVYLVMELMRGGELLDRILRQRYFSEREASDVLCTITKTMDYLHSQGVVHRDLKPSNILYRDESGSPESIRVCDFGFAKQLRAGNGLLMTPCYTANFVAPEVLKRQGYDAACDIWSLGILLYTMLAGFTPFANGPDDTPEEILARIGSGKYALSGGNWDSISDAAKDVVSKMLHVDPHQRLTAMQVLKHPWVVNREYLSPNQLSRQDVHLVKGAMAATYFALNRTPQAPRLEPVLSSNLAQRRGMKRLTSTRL
# Cond: at 0.1 µM
Measured Property: inhibition (%)
Give the number; % is assumed, so skip it.

Worked set:
test_smiles=Fc1ccc(-c2ncn(CCCN3CCOCC3)c2-c2ccncc2)cc1 measured_property=inhibition units_label=% observed=0.61
test_smiles=COc1cc2ncn(-c3cc(OCc4ccccc4C(F)(F)F)c(C(C)=O)s3)c2cc1OC measured_property=inhibition units_label=% observed=2.48
test_smiles=CN(c1ccc(NC(=O)Nc2c(Cl)cccc2Cl)cc1)c1ccnc(Nc2cccc(CS(C)(=O)=O)c2)n1 measured_property=inhibition units_label=% observed=-2.19
test_smiles=COc1cc(N2CCN(C(C)C)CC2)ccc1Nc1nc(Nc2ccc(F)cc2C(=O)NC[C@@H](O)CO)c2cc[nH]c2n1 measured_property=inhibition units_label=% observed=3.45
test_smiles=Cc1nnc(-c2ccc(C)c(-c3ccc(C(=O)NCc4ccc(Cl)cc4)cc3)c2)o1 measured_property=inhibition units_label=% observed=3.07
test_smiles=COc1cc2ncn(-c3cc(OCCc4ccccc4)c(C(N)=O)s3)c2cc1OC measured_property=inhibition units_label=% observed=1.71

Exercise: Please look at this molecule and report its inhibition: COc1cccc(-n2cnc3c(N/N=C/c4ccncc4)ncnc32)c1
Solution: -0.37

Exercise: Please look at this molecule and report its inhibition: C[C@@H](Oc1cc(-n2cnc3ccc(OCC4CCN(C)CC4)cc32)sc1C(N)=O)c1ccccc1Cl
Solution: 5.72

Exercise: Please look at this molecule and report its inhibition: COC(=O)Nc1nc2ccc(Sc3ccc(NC(=O)Nc4cc(C(F)(F)F)ccc4F)cc3)cc2[nH]1
Solution: 47.7

====

# Test system: Tyrosine-protein kinase ABL1 (Homo sapiens), P00519 [Y253F]
# Cond: at 0.1 µM
Measured Property: inhibition (%)
Give the number; % is assumed, so skip it.

Worked set:
compound=CCc1ccc(Oc2nccc(-c3c(-c4ccc(F)cc4)ncn3C3CCNCC3)n2)cc1 measured_property=inhibition observed=1.61
compound=O=C(NCC1CC1)c1ccc(-c2cccc(C(=O)NC3CC3)c2)cc1 measured_property=inhibition observed=2.82
compound=Fc1ccc(-c2ncn(C3CCNCC3)c2-c2ccnc(Oc3ccc(Oc4ccccc4)cc3)n2)cc1 measured_property=inhibition observed=1.99

Now let's try a different one.
Exercise: Report inhibition from Tyrosine-protein kinase ABL1 (Homo sapiens), P00519 [Y253F] testing of O=C(Nc1n[nH]c2nc(-c3ccco3)ccc12)C1CC1
Solution: 4.47

====

# Assay System: Misshapen-like kinase 1 (Homo sapiens) (UniProt Q8N4C8);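 note: mean inhibition value reported, from GSK PKIS kinase profiling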
# Sequence (Q8N4C8 whole entry, looked up): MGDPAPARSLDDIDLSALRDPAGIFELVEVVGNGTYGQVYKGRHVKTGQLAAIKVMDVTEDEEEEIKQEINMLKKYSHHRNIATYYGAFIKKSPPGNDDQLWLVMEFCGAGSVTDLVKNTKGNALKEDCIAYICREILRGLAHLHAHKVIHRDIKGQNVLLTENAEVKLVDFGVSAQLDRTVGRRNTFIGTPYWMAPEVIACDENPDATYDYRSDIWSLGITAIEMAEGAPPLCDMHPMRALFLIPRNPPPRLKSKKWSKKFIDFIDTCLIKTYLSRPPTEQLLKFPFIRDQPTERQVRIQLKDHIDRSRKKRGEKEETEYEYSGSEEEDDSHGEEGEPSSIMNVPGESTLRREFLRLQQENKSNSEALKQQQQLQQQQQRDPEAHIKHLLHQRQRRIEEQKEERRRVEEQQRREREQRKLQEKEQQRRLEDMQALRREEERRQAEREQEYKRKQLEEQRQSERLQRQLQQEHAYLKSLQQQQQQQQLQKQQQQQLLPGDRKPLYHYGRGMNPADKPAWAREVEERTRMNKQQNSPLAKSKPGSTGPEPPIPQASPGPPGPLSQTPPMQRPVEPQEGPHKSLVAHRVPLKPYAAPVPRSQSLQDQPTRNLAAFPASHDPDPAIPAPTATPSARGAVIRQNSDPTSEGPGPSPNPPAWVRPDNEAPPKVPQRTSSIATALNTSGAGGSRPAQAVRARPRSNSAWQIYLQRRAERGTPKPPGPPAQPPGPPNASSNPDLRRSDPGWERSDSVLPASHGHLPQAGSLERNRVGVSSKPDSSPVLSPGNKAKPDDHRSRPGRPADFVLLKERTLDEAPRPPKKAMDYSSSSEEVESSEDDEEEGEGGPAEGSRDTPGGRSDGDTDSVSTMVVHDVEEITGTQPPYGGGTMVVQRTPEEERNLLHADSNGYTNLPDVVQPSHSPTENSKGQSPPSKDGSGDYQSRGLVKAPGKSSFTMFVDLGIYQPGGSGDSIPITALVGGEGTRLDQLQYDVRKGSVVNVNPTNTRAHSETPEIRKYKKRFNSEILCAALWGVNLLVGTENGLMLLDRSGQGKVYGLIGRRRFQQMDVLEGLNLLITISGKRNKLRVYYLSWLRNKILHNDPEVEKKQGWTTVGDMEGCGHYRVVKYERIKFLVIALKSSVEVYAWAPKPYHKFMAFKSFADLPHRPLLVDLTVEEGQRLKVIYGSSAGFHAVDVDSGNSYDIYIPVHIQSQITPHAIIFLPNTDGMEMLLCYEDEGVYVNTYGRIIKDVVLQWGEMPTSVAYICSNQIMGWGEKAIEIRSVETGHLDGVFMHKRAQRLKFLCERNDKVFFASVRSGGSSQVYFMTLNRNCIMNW
# Cond: at 0.1 µM
Returns criterion met if the recorded inhibition is greater than or equal to 20%, and criterion not met otherwise.

These recorded examples may help you get a feel for the data.
test_smiles=COc1cc2ncn(-c3cc(OCCc4ccccc4)c(C(N)=O)s3)c2cc1OC assay_system="Misshapen-like kinase 1 (Homo sapiens) (UniProt Q8N4C8)" assigned_class="criterion not met"
test_smiles=CN(c1ccc(NC(=O)Nc2c(Cl)cccc2Cl)cc1)c1ccnc(Nc2cccc(CS(C)(=O)=O)c2)n1 assay_system="Misshapen-like kinase 1 (Homo sapiens) (UniProt Q8N4C8)" assigned_class="criterion met"
test_smiles=O=C(Nc1n[nH]c2cc(-c3cc(F)ccc3F)ccc12)C1CC1 assay_system="Misshapen-like kinase 1 (Homo sapiens) (UniProt Q8N4C8)" assigned_class="criterion not met"

Exercise: Decide: is the reported value of inhibition for CN(C)c1ccc2c(c1)/C(=C/Nc1ccc(S(N)(=O)=O)cc1)C(=O)N2 equal to or greater than 20%?
Solution: criterion not met

====

Here the recorded inhibition is given for each entry.
# System: Mast/stem cell growth factor receptor Kit (Homo sapiens), P10721 [V560G]
# Sequence (P10721 whole entry V560G): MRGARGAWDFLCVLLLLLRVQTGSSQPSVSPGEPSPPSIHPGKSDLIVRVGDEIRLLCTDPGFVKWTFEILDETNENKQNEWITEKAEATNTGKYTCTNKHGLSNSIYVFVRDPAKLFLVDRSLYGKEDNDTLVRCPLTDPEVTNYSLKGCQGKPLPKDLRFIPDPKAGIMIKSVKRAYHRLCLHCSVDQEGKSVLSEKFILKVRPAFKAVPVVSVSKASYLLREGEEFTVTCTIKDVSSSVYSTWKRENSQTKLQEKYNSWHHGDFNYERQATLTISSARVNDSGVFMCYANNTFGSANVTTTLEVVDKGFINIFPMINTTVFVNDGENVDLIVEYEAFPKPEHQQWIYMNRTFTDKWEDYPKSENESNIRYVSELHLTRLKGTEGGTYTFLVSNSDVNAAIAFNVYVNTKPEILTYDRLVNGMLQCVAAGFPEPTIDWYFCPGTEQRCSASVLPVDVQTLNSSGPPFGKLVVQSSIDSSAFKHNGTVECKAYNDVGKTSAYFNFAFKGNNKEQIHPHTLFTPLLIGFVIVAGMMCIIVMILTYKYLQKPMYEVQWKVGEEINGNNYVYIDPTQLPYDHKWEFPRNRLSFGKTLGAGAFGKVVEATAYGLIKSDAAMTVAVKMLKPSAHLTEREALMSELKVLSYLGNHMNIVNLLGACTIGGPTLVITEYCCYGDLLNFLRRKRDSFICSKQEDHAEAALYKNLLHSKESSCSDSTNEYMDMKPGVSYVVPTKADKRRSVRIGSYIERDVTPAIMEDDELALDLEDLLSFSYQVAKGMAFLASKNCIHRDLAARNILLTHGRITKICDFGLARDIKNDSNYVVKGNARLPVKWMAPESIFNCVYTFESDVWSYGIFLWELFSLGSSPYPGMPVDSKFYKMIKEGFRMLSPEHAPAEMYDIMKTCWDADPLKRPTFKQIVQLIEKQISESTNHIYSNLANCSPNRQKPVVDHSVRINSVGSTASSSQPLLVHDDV
# Cond: at 1 µM
Give the number; % is assumed, so skip it.

Worked set:
test_smiles=COc1ccc2cc(-c3c(-c4ccncc4)nc(-c4ccc(S(C)(=O)=O)cc4C)n3C)ccc2c1 assay_system="Mast/stem cell growth factor receptor Kit (Homo sapiens), P10721 [V560G]" observed=-0.08
test_smiles=FC(F)(F)c1cccc(Nc2nccc(-c3cnn4nc(-c5ccccc5)ccc34)n2)c1 assay_system="Mast/stem cell growth factor receptor Kit (Homo sapiens), P10721 [V560G]" observed=1.67
test_smiles=O=C(Nc1n[nH]c2nc(-c3ccc(O)cc3)c(Br)cc12)C1CC1 assay_system="Mast/stem cell growth factor receptor Kit (Homo sapiens), P10721 [V560G]" observed=10.8
test_smiles=COc1ccc2ncn(-c3cc(O[C@H](C)c4ccccc4Cl)c(C(N)=O)s3)c2c1 assay_system="Mast/stem cell growth factor receptor Kit (Homo sapiens), P10721 [V560G]" observed=0.26
test_smiles=COc1cccc(-n2cnc3c(N/N=C/c4ccncc4)ncnc32)c1 assay_system="Mast/stem cell growth factor receptor Kit (Homo sapiens), P10721 [V560G]" observed=18.8

Exercise: Please look at this molecule and report its inhibition: COc1cc2ncn(-c3cc(OCc4ccccc4C(F)(F)F)c(C(C)=O)s3)c2cc1OC
Solution: 1.6

Exercise: Please look at this molecule and report its inhibition: Fc1ccc(-c2ncn(C3CCNCC3)c2-c2ccnc(Oc3ccc(Oc4ccccc4)cc3)n2)cc1
Solution: -3.42

Exercise: Please look at this molecule and report its inhibition: NC(=O)c1cc(-c2ccc(F)cc2)cc(-c2ccncc2)c1N
Solution: 1.74

Exercise: Please look at this molecule and report its inhibition: Fc1ccc(-c2ncn(C3CCNCC3)c2-c2ccnc(Oc3ccc(F)c(F)c3)n2)cc1
Solution: 0.87

Exercise: Please look at this molecule and report its inhibition: Fc1ccc(-c2c(-c3ccncc3)nc3n2CCS3)cc1
Solution: -3.6
